- Test system: GP2D (KRAS G12D) cells
- procedure-summary: 2D cell viability assay (CellTiter-Glo)
- Assay type: cell-based
- condition-set: GP2d, 96 h, 4 days
pEC50: −log10 of the molar value.
Entries and their measured pEC50 follow.
observable: pEC50

[
  {
    "query-smiles": "C#Cc1c(F)ccc2cc(O)cc(-c3nc4c5c(nc(OCC6(CN7CCC[C@@H](F)C7)CC6)nc5c3F)N3C[C@H]5CC[C@H](N5)[C@H]3CO4)c12",
    "result": 8.70
  },
  {
    "query-smiles": "C#Cc1c(F)ccc2cccc(-c3nc4c5c(nc(OCC67CCCN6CCC7)nc5c3F)N3C[C@H]5CC[C@H](N5)[C@@H]3[C@@H](C)C4)c12",
    "result": 7.53
  },
  {
    "query-smiles": "C#Cc1c(F)ccc2cc(O)cc(-c3nc4c5c(nc(OCC6(CN7CCC[C@@H](F)C7)CC6)nc5c3F)N3C[C@H]5CC[C@H](N5)[C@H]3CC4)c12",
    "result": 9.00
  },
  {
    "query-smiles": "Oc1cc(-c2nc3c4c(nc(OC[C@@]56CCCN5C[C@H](F)C6)nc4c2F)N2C[C@H]4CC[C@H](N4)[C@H]2CC3)c2c(CC(F)(F)F)c(F)ccc2c1",
    "result": 7.62
  },
  {
    "query-smiles": "C#Cc1c(F)ccc2cccc(-c3nc4c5c(nc(OCC6(CN7CCC[Si](C)(C)CC7)CC6)nc5c3F)N3C[C@H]5CC[C@H](N5)[C@@H]3[C@@H](C)C4)c12",
    "result": 6.43
  }
]

* * *

- Tested on: GP2D (KRAS G12D) cells
- procedure-summary: 2D cell viability assay (CellTiter-Glo)
- Assay type: cell-based
- condition-set: GP2d, 96 h, 4 days
Labelling: EC50 reported below 4 nM becomes rule met; at or above becomes rule not met.

[
  {
    "compound": "C#Cc1c(F)ccc2cc(O)cc(-c3nc4c5c(nc(OCC6(CN7CCC(OC)(C(F)(F)F)CC7)CC6)nc5c3F)N3C[C@H]5CC[C@H](N5)[C@H]3CC4)c12 [Example 168]",
    "system-name": "GP2D (KRAS G12D) cells",
    "group": "rule met"
  },
  {
    "compound": "C#Cc1c(F)ccc2cc(O)cc(-c3nc4c5c(nc(OC[C@@]67CCCN6[C@H](COc6ccnc(C(F)(F)F)n6)CC7)nc5c3F)N3C[C@H]5CC[C@H](N5)[C@H]3CC4)c12 [Example 148]",
    "system-name": "GP2D (KRAS G12D) cells",
    "group": "rule met"
  },
  {
    "compound": "Oc1cc(-c2nc3c4c(nc(OC[C@@]56CCCN5C[C@H](F)C6)nc4c2F)N2C[C@H]4CC[C@H](N4)[C@H]2CO3)c2ccccc2c1 [Example 20]",
    "system-name": "GP2D (KRAS G12D) cells",
    "group": "rule not met"
  },
  {
    "compound": "C#Cc1c(F)ccc2cccc(-c3nc4c5c(nc(OCC67CC8(CC8)CN6CC6(CC6)C7)nc5c3F)N3C[C@H]5CC[C@H](N5)[C@@H]3[C@@H](C)C4)c12 [Example 158]",
    "system-name": "GP2D (KRAS G12D) cells",
    "group": "rule not met"
  }
]

* * *

- system-name: GDP-loaded KRAS G12D (Homo sapiens (Human), UniProt P01116, G12D)
- Sequence (P01116-2 other isoform, or with tags, fused parts or gaps G12D): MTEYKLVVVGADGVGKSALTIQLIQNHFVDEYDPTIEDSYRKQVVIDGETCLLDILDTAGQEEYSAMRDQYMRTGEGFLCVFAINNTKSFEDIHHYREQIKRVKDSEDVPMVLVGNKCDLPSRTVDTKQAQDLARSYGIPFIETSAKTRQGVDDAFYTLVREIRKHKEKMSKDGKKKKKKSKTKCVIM
- procedure-summary: KRAS G12D (GDP) biochemical assay (TR-FRET probe displacement)
- condition-set: 2 hours
Below: a set of entries, each annotated with reported log10 IC50.
observable: log10 IC50 (log10 of the value in nM)

[
  {
    "compound": "C#Cc1c(F)ccc2cccc(-c3nc4c5c(nc(OCC6(CN7CCC(C(F)(F)F)CC7)CC6)nc5c3F)N3C[C@H]5CC[C@H](N5)[C@@H]3[C@@H](C)C4)c12",
    "result": 1.19
  },
  {
    "compound": "C#Cc1c(F)ccc2cccc(-c3nc4c5c(nc(OC[C@@]67CCCN6[C@H](COc6cc(C(F)(F)F)ncn6)CC7)nc5c3F)N3C[C@H]5CC[C@H](N5)[C@H]3CCC4)c12",
    "result": -1.00
  },
  {
    "compound": "C#Cc1c(F)ccc2cccc(-c3nc4c5c(nc(OC[C@@]67CCCN6[C@H](COc6cccc(S(F)(F)(F)(F)F)c6)CC7)nc5c3F)N3C[C@H]5CC[C@H](N5)[C@H]3CC4)c12",
    "result": 0.18
  },
  {
    "compound": "Fc1cccc2c(-c3nc4c5c(nc(OC[C@@]67CCCN6C[C@H](F)C7)nc5c3F)N3C[C@H]5CC[C@H](N5)[C@H]3CO4)cccc12",
    "result": 3.69
  },
  {
    "compound": "C#Cc1c(F)ccc2cc(N)cc(-c3nc4c5c(nc(OC[C@@]67CCCN6C[C@H](F)C7)nc5c3F)N3C[C@H]5CC[C@H](N5)[C@@H]3CC[C@H]4C)c12",
    "result": 1.49
  },
  {
    "compound": "Oc1cc(-c2nc3c4c(nc(OC[C@@]56CCCN5C[C@H](F)C6)nc4c2F)N2C[C@H]4CC[C@H](N4)[C@H]2CO3)c2c(OC(F)(F)F)c(F)ccc2c1",
    "result": -0.22
  },
  {
    "compound": "C#Cc1c(F)ccc2cccc(-c3nc4c5c(nc(OCC6(CN7CCC(OC(F)(F)F)CC7)CC6)nc5c3F)N3C[C@H]5CC[C@H](N5)[C@@H]3[C@@H](C)C4)c12",
    "result": 1.56
  },
  {
    "compound": "Oc1cc(-c2nc3c4c(nc(OC[C@@]56CCCN5C[C@H](F)C6)nc4c2F)N2C[C@H]4CC[C@H](N4)[C@H]2CO3)c2c(OC(F)(F)F)cccc2c1",
    "result": 0.30
  },
  {
    "compound": "C#Cc1c(F)ccc2cc(O)cc(-c3nc4c5c(nc(OC[C@]67CCCN6C[C@@H](OC(F)(F)F)C7)nc5c3F)N3C[C@H]5CC[C@H](N5)[C@H]3CC4)c12 (stereo in doubt)",
    "result": -0.70
  },
  {
    "compound": "C#Cc1c(F)ccc2cc(O)cc(-c3nc4c5c(nc(OC[C@@]67CCCN6[C@H](COC(=O)N(C)C)CC7)nc5c3F)N3C[C@H]5CC[C@H](N5)[C@H]3CO4)c12",
    "result": -0.40
  },
  {
    "compound": "C#Cc1c(F)ccc2cccc(-c3nc4c5c(nc(OC[C@@]67CCCN6C[C@H](F)C7)nc5c3F)N3C[C@H]5CC[C@H](N5)[C@H]3[C@H](C)C4)c12",
    "result": -0.15
  },
  {
    "compound": "C#Cc1c(F)ccc2cccc(-c3nc4c5c(nc(OCC6(CN7CC[C@H](OC(F)(F)F)C7)CC6)nc5c3F)N3C[C@H]5CC[C@H](N5)[C@@H]3[C@@H](C)C4)c12",
    "result": 1.71
  },
  {
    "compound": "C#Cc1c(F)ccc2cc(O)cc(-c3nc4c5c(nc(OC[C@@]67CCCN6[C@H](COC(=O)N(C)C(F)(F)F)CC7)nc5c3F)N3C[C@H]5CC[C@H](N5)[C@H]3CO4)c12",
    "result": -0.52
  },
  {
    "compound": "C#Cc1c(F)ccc2cc(O)cc(-c3nc4c5c(nc(OC[C@@]67CCCN6[C@H](COc6ncccc6OC(F)(F)F)CC7)nc5c3F)N3C[C@H]5CC[C@H](N5)[C@H]3CC4)c12",
    "result": -0.70
  },
  {
    "compound": "C#Cc1c(F)ccc2cc(O)cc(-c3nc4c5c(nc(OCC67CCCN6C[C@H](OC(F)(F)F)C7)nc5c3F)N3C[C@H]5CC[C@H](N5)[C@H]3CC4)c12 (some centres unmarked)",
    "result": -0.52
  },
  {
    "compound": "Oc1cc(-c2nc3c4c(nc(OC[C@@]56CCCN5C[C@H](F)C6)nc4c2F)N2C[C@H]4CC[C@H](N4)[C@H]2CC3)c2c(OC(F)(F)F)c(F)ccc2c1",
    "result": -0.22
  },
  {
    "compound": "C#Cc1c(F)ccc2cc(O)cc(-c3nc4c5c(nc(OC[C@@]67CCCN6C[C@H](F)C7)nc5c3F)N3C[C@H]5CC[C@H](N5)[C@H]3CCC4)c12",
    "result": -1.22
  },
  {
    "compound": "C#Cc1c(F)ccc2cc(O)cc(-c3nc4c5c(nc(OC[C@@]67CCCN6[C@H](CN=[N+]=[N-])CC7)nc5c3F)N3C[C@H]5CC[C@H](N5)[C@H]3CO4)c12",
    "result": -0.70
  }
]
